# targetDesc: T1, cFΦR4-PCP (not fully specified)
# T1 chain: FXRRRRQXDEXLI
measuredEndpoint: kcat/KM (M⁻¹ s⁻¹)
Give the value in M⁻¹ s⁻¹ but do not write M⁻¹ s⁻¹ after it.

protein SHP2 (protein) AEIESRVRELSKLAETTDKVKQGFWEEFETLQQQECKLLYSRKEGQRQENKNKNRYKNILPFDHTRVVLHDGDPNEPVSDYINANIIMPEFETKCNNSKPKKSYIATQGCLQNTVNDFWRMVFQENSRVIVMTTKEVERGKSKCVKYWPDEYALKEYGVMRVRNVKESAAHDYTLRELKLSKVGQGNTERTVWQYHFRTWPDHGVPSDPGGVLDFLEEVHHKQESIMDAGPVVVHCSAGIGRTGTFIVIDILIDIIREKGVDCDIDVPKTIQMVRSQRSGMVQTEAQYRFIYMAVQHYIETLQRR , kcat/KM observed: 7400

Next:
protein TCPTP (protein) MPTTIEREFEELDTQRRWQPLYLEIRNESHDYPHRVAKFPENRNRNRYRDVSPYDHSRVKLQNAENDYINASLVDIEEAQRSYILTQGPLPNTCCHFWLMVWQQKTKAVVMLNRIVEKESVKCAQYWPTDDQEMLFKETGFSVKLLSEDVKSYYTVHLLQLENINSGETRTISHFHYTTWPDFGVPESPASFLNFLFKVRESGSLNPDHGPAVIHCSAGIGRSGTFSLVDTCLVLMEKGDDINIKQVLLNMRKYRMGLIQTPDQLRFSYMAIIEGAKCIKGDSSIQKRWKELSKEDLSPAFDHSPNKIMTEKYN , kcat/KM observed: 2780

protein PTP1B (construct not stated) (protein) MEMEKEFEQIDKSGSWAAIYQDIRHEASDFPCRVAKLPKNKNRNRYRDVSPFDHSRIKLHQEDNDYINASLIKMEEAQRSYILTQGPLPNTCGHFWEMVWEQKSRGVVMLNRVMEKGSLKCAQYWPQKEEKEMIFEDTNLKLTLISEDIKSYYTVRQLELENLTTQETREILHFHYTTWPDFGVPESPASFLNFLFKVRESGSLSPEHGPVVVHCSAGIGRSGTFCLADTCLLLMDKRKDPSSVDIKKVLLEMRKFRMGLIQTADQLRFSYLAVIEGAKFIMGDSSVQDQWKELSHEDLEPPPEHIPPPPRPPKRILEPHN , kcat/KM observed: 37100

protein VHR (protein) MSGSFELSVQDLNDLLSDGSGCYSLPSQPCNEVTPRIYVGNASVAQDIPKLQKLGITHVLNAAEGRSFMHVNTNANFYKDSGITYLGIKANDTQEFNLSAYFERAADFIDQALAQKNGRVLVHCREGYSRSPTLVIAYLMMRQKMDVKSALSIVRQNREIGPNDGFLAQLCQLNDRLAKEGKLKP , kcat/KM observed: 2460
